Tested on: MCF-10
Test: antiproliferative assay, normal mammary epithelial cell line MCF-10
Assay type: cell-based
Conditions: Homo sapiens, MCF10, read-out: IC50 MCF-10
VALUE TYPE: IC50

## Input Using the record for O=C1C2=C(C(=O)c3ccccc31)C(O)C1=C(O)CC(c3ccccc3)C1=C2O (stereo not shown) [Compound 4a] , state its measured IC50.
## Output > 33.3 µM
